// data source = patent US6319951A

experiment: Therapeutic Index determination

[
  {
    "compound": "Nc1cc(C(=O)O)ccc1O [3-amino-4-hydroxybenzoic acid]",
    "selectivity ratio": 40000
  }
]
